Experiment: 7-day repeat-dose oral toxicokinetics
Format: in vivo, Bama minipig
Conditions: female, Bama, minipig, plasma, po, 0.3 g/kg, 0.3 g/kg BID, Day 7, F
Quantity Measured: Tmax (min)
Unit min implied. Number only.

[Q] Any idea what Tmax was measured for OC[C@@H](O)[C@@H](O)[C@@H](O)CO ?
[A] 30

---

Assay: 28-day repeat-dose oral toxicokinetics
Type: in vivo, CD-1 mouse
Conditions: female, CD-1, mouse, plasma, po, 0.5 g/kg, 0.5 g/kg/dose BID, Day 28, Female
Quantity Measured: Tmax (h)
Unit h implied. Number only.

[Q] Any idea what Tmax was measured for OC[C@@H](O)[C@@H](O)[C@@H](O)CO ?
[A] 8.5

---

Assay: in vivo
Parameters: species or system mouse
Details: male, mouse, 3 g/kg/day, Steady-state AUC(0-24)
Quantity Measured: AUC(0-t)
I'd appreciate it if you wrote the number followed by its unit.

[Q] Any idea what AUC(0-t) was measured for OC[C@@H](O)[C@@H](O)[C@@H](O)CO [ribitol, (2R,3s,4S)-Pentane-1,2,3,4,5-pentol] ?
[A] 974 µg·h/mL

---

Assay: Single oral dose PK
Assay type: in vivo
Conditions: Bama, minipig, plasma; single PO 0.3 g/kg, male; read-out: Tmax
Quantity Measured: Tmax (min)
Unit min implied. Number only.

[Q] Any idea what Tmax was measured for OC[C@@H](O)[C@@H](O)[C@@H](O)CO ?
[A] 30

---

Experiment: 7-day repeat-dose oral toxicokinetics
Type: in vivo, CD-1 mouse
Conditions: female, CD-1, mouse, plasma, po, 1.5 g/kg, 1.5 g/kg/dose BID, Day 7, F
Procedure: Toxicokinetics were evaluated as part of a 7-day oral repeat-dose dose range finding study in CD-1 mice. […] On Days 1 and 7, blood was collected for plasma toxicokinetics (TK) from the treatment groups at 0 (pre-first dose), 0.5, 2, 4, 6 (pre-second dose), 6.5, 8, 10, 12, and 24 hours post-first dose. In the vehicle control group, blood was collected for plasma TK on Day 1 and Day 7 at 0.5 and 6.5 hours post-first dose.
Quantity Measured: Tmax (h)
Unit h implied. Number only.

[Q] Any idea what Tmax was measured for OC[C@@H](O)[C@@H](O)[C@@H](O)CO [ribitol, (2R,3s,4S)-Pentane-1,2,3,4,5-pentol] ?
[A] 6.5

---

Assay: Metabolic stability in liver microsomes, cytosol, hepatocytes
Type: in vitro ADME
Details: human, liver cytosol, Cytosol
Method: Metabolic stability of ribitol was conducted in liver microsomes, cytosol, and primary hepatocytes, from CD-1 mouse, Sprague-Dawley rat, Gottingen minipig, and human at a concentration of ribitol of 10 μM.
Quantity Measured: half-life at 10 μM (h)
Unit h implied. Number only.

[Q] Any idea what half-life at 10 μM was measured for OC[C@@H](O)[C@@H](O)[C@@H](O)CO ?
[A] 6.35

---

Experiment: 28-day repeat-dose oral toxicokinetics
Assay type: in vivo, CD-1 mouse
Conditions: male, CD-1, mouse, plasma, po, 1.5 g/kg, 1.5 g/kg/dose BID, Day 1, Male
Experimental: Toxicokinetics of ribitol was evaluated as part of the 28-day toxicology study in male and female CD-1 mice. […] Toxicokinetic animals were 12/sex in the control group and 48/sex/group in the treated groups. Blood samples were collected on Day 1 and Day 28 at pre-first dose, 0.5, 2, 4, 8 (prior to second dose), 8.5, 10, and 24 h.
Quantity Measured: Tmax (h)
Unit h implied. Number only.

[Q] Any idea what Tmax was measured for OC[C@@H](O)[C@@H](O)[C@@H](O)CO ?
[A] 8.5
